The reported numbers originate from ChEMBL document CHEMBL3044929.

system: Drosophila melanogaster; test: Insecticidal activity against first-instar larval stage of Drosophila melanogaster fed with artificial diet containing compound assessed as mortality at 8.3 umol/ml measured after 120 hr; assay type: functional
metric: mortality (%)
Give your result in % as a bare value.

Find the recorded mortality belonging to CC1=C2C[C@H](C(C)(O)CO)CC[C@@]2(C)CCC1=O (some centres undefined) and report it.
10

Find the recorded mortality belonging to C=C(C)[C@@H]1CC[C@@]2(C)CC[C@@H](O)C(C)=C2C1 [3ALPHA-HYDROXY-CYPERONE] and report it.
0

Find the recorded mortality belonging to C=C(C)[C@@H]1CC[C@]2(C)CCC(=O)C[C@]2(O)C1 [5-HYDROXY-14-NOREUDESM-11-EN-3-ONE] and report it.
16.6

Find the recorded mortality belonging to C=C(C)[C@@H]1CC[C@]2(C)CCC(=O)[C@H](C)[C@]2(O)C1 [5ALPHA-HYDROXY-14-EUDESM-11-EN-3-ONE] and report it.
16.7
